These data points were gathered from the DeepSol protein solubility set.

Test: soluble on expression in E. coli; label from the status in PepcDB or PDB records

>  <SEQ STRING>
MSSKANHAKTVICGIINVTPDSFSDGGQFFALEQALQQARKLIAEGASMLDIGGESTRPGSSYVEIEEEIQRVVPVIKAIRKESDVLISIDTWKSQVAEAALAAGADLVNDITGLMGDEKMPHVVAEARAQVVIMFNPVMARPQHPSSLIFPHFGFGQAFTEEELADFETLPIEELMEAFFERALARAAEAGIAPENILLDPGIGFGLTKKENLLLLRDLDKLHQKGYPIFLGVSRKRFVINILEENGFEVNPETELGFRNRDTASAHVTSIAARQGVEVVRVHDVASHRMAVEIASAIRLADEAENLDLKQYK

>  <soluble on expression in E. coli>
soluble

$$$$
>  <SEQ STRING>
RKLTMNSNYKREDFVNETEVRWCPGCGDYAILAALQRVLPELGLPPEQHVFVSGIGCAGRLPYYMNTYGFHTIHGRATAVATGLKAMREDLCVWVITGDGDALSIGGNHLLHILRRNVNVNILLFNNQVYGLTKGQFSPTSQKGQVTKTSPKGVTSEPINPIMIALASGASFVARAVDKDPVHLASVLKKAYEHKGCSFVEIYQDCNIFNHGAFDDFAVKNNRAENTIILEDGQPLVFGAQKEKALQLDDEQFVQISIDEKTLYKHDEKNLISAMRLARLTFPDYPVPLGVYYQKDRERFTLSQEVKKRPEDLP

>  <soluble on expression in E. coli>
not soluble

$$$$
>  <SEQ STRING>
MPQSFTSIARIGDYILKSPVLSKLCVPVANQFINLAGYKKLGLKFDDLIAEENPIMQTALRRLPEDESYARAYRIIRAHQTELTHHLLPRNEWIKAQEDVPYLLPYILEAEAAAKEKDELDNIEVSK

>  <soluble on expression in E. coli>
soluble

$$$$
>  <SEQ STRING>
DVLESTIKAQKSRALNRKNLNYKQLLNTFGSLIGLVFLKSYEQGERTYLGMLSRGYSKDSNIKTLGQK

>  <soluble on expression in E. coli>
not soluble

$$$$
>  <SEQ STRING>
GMIEKVYEFKRDAKTKVVEKLVNTEHVQINHIVLPRGEQMPKHYSNSYVHLIIIKGEMTLTLEDQEPHNYKEGNIVYVPFNVKMLIQNINSDILEFFVVKAPHPKKLNAPEDPIKCE

>  <soluble on expression in E. coli>
soluble

$$$$
>  <SEQ STRING>
MEKSEIQKVDQVIRAWLEDEPLMYERLLEVEALEALPQVLGPLYKFLGRSRIHDGVLYLTFNSSVVRSQLSNNKAELLLRLNTAVDAELIRQIVFL

>  <soluble on expression in E. coli>
not soluble

$$$$
>  <SEQ STRING>
MIKTDLNDFAWFVHVVEEGGFAAAGRALDEPKSKLSRRIAQLEERLGVRLIQRTTRQFNVTEVGQTFYEHCKAMLVEAQAAQDAIAALQVEPRGIVKLTCPVTLLHVHIGPMLAKFMARYPDVSLQLEATNRRVDVVGEGVDVAIRVRPRPFEDSDLVMRVLADRGHRLFASPDLIARMGIPSAPAELSHWPGLSLASGKHIHRWELYGPQGARAEVHFTPRMITTDMLALREAAMAGVGLVQLPVLMVKEQLAAGELVAVLEEWEPRREVIHAVFPSRRGLLPSVRALVDFLTEEYARMVEE

>  <soluble on expression in E. coli>
not soluble

$$$$
>  <SEQ STRING>
MGSQFLLSVREFMQTRYYAKKTIEAYLHWITRYIHFHNKKHPSLMGDKEVEEFLTYLAVQGKVATKTQSLALNSLSFLYKEILKTPLSLEIRFQRSQLERKLPVVLTRDEIRRLLEIVDPKHQLPIKLLYGSGLRLMECMRLRVQDIDFDYGAIRIWQGKGGKNRTVTLAKELYPHLKEQIALAKRYYDRDLHQKNYGGVWLPTALKEKYPNAPYEFRWHYLFPSFQLSLDPESDVMRRHHMNETVLQKAVRRSAQEAGIEKTVTCHTLRHSFATHLLEVGADIRTVQEQLGHTDVKTTQIYTHVLDRGASGVLSPLSRL

>  <soluble on expression in E. coli>
soluble

$$$$
>  <SEQ STRING>
MRAGVREVIDDSSERTLQQVIERAFLRTKGAIIRQKRVFGFVSAKGGDGGSCIAANFAFALSQEPDIHVLAVDISLPFGDLDMYLSGNTHSQDLADISNASDRLDKSLLDTMVQHISPSLDLIPSPATFEKIVNIEPERVSDLIHIAASFYDYIIVDFGASIDHVGVWVLEHLDELCIVTTPSLQSLRRAGQLLKLCKEFEKPISRIEIILNRADTNSRITSDEIEKVIGRPISKRIPQDEDAMQESLLSGQSVLKVAPKSQLSKTIVDWALHLNGVSRPNKRSIWERLKIK

>  <soluble on expression in E. coli>
not soluble

$$$$
>  <SEQ STRING>
MRLLVIIILVAFFLCTTAELMEKRSSMGGSAFGGIDRIPLSYLRKYYRQKTMKRDDNELLDFSPQNSQLGYRSISFWPLY

>  <soluble on expression in E. coli>
not soluble

$$$$
>  <SEQ STRING>
MSPSIFPPINFLFQNSALLSSFAAQKALSNGHPSGSSLAALEKLSKAFRRPDLHIEKLASSCIDKQKDLKMTNVVPSRNRYGRPYISGRPLLTCDRQKIVECYKKGMKKIHIAKQLGITHSCVSKVLRR

>  <soluble on expression in E. coli>
not soluble

$$$$
>  <SEQ STRING>
SSSNSEKEWHIVPVSKDYFSIPNDLLWSFNTTNKSINVYSKCISGKAVYSFNAGKFMGNFNVKEVDGCFMDAQKIAIDKLFSMLKDGVVLKGNKINDTILIEKDGEVKLKLIRGI

>  <soluble on expression in E. coli>
soluble

$$$$
>  <SEQ STRING>
MMRNEHVAKGITGVSWYDFKQKLKYKAECGNMEFIEIGRFDPSFEIWSRCGWIDYNLKLSDRIFRCENCGLVIDRDLNTAINISNMELKKVGKGIPEFTPVDIATAADPTIRTGTASSRSMNREPPKPKRLEHHHHHH

>  <soluble on expression in E. coli>
not soluble

$$$$
>  <SEQ STRING>
MLQVLGRLINILFPLLRFILGIWWEKLRGKDPTVSRAKAIQLRELLTNLGPTYIKVGQALSTRPDLVPPVFLDELTTLQDQLPSFPNEVAYRFIEEELGAPAEEIYAELEHHHHHH

>  <soluble on expression in E. coli>
not soluble

$$$$
>  <SEQ STRING>
MRKVTAAVMASTLAFSFLSHAAEVVTSDNWHPGDGATQRSAQNHMFDGISLTEHQRQQMRDLMQQARHEQPPVNVSEMETMHRLVTAEKFDESAVRAQAEKMAQEQVARQVEMARVRNQMYRLLTPEQQAVLNEKHQQRMEQLRDVAQWQKSSSLKLLSSSNSRSQLEHHHHHH

>  <soluble on expression in E. coli>
not soluble

$$$$

* * *

Assay: soluble on expression in E. coli; label from the status in PepcDB or PDB records
OUTCOME MEASURE: soluble on expression in E. coli

>  <SEQ STRING>
MDKTTHDKGLEIRKAVLGEAYVENALKNADDFNQPFQELVTEYCWGAIWGRDGLPKKTRSMLNLAMIAILNRPHELRAHIKGALTNGVTKDEIREIFMQVACYAGIPAGVDSFRIAREVFAELDKA

>  <OUTCOME MEASURE>
soluble on expression in E. coli

>  <RESULT VALUE>
not soluble

$$$$
>  <SEQ STRING>
GSCASCPNNCENGLCTNSCDFEDLLSNCESLKTSAGCKHELLKTKCQATCLCEDKIH

>  <OUTCOME MEASURE>
soluble on expression in E. coli

>  <RESULT VALUE>
soluble

$$$$
>  <SEQ STRING>
MQKAVVMDEQAIRRALTRIAHEIIERNKGIDGCVLVGIKTRGIYLARRLAERIEQIEGASVPVGELDITLYRDDLTVKTDDHEPLVKGTNVPFPVTERNVILVDDVLFTGRTVRAAMDAVMDLGRPARIQLAVLVDRGHRELPIRADFVGKNVPTSRSELIVVELSEVDGIDQVSIHEK

>  <OUTCOME MEASURE>
soluble on expression in E. coli

>  <RESULT VALUE>
soluble

$$$$
>  <SEQ STRING>
MKARKAKEFVFNDLLSMESYCINHYSDYYSKSNFSCNVTQLSKGELVTSSICAPINDAHLEIFKSNQTILYEEEANQNSVAFCWINSNGEQAQTNTIISGHKMMDLSIAGFNRLNKTGGNVWDIVGANTQLCCMSLKWEKVKEKINQMNAYNAFAKLEECIGIDSNSSASIQLKSLFERHFTKGLRESEAFYDLAIATLEEPCDLEILTERSDKTELIEDLVKLLYEDREGMPPLTISEITKYLNTEKESLSIACRTNFDMPILDLIKSIRLEQVKKSYLNPHVPKGLKNFTKKQNALYYGFKNWTTFQKFYHQSFQESPDETINKSSKASVLVTDLFTRRS

>  <OUTCOME MEASURE>
soluble on expression in E. coli

>  <RESULT VALUE>
not soluble

$$$$
>  <SEQ STRING>
MIEVDGYFYHNAGAENKNTFVNDRWKMNDAAVRGYLVLRYPASSVFEELDTIVGQVIFATRVVREELVVVDSTRRWHRGPWEWLPLDSW

>  <OUTCOME MEASURE>
soluble on expression in E. coli

>  <RESULT VALUE>
not soluble

$$$$
>  <SEQ STRING>
MQYKGQGFQPVAEKSAIAHAKKYREEYEKLGEQFFKDNFSLNVKATNVVGSGDGVEVYVHCDDHDIVFNASIPFDKEAIHEEGSMRSNDNGDTMSNMVGTVLSGFEYKAQKEKYDNLTKFFKDNEEKYQYTGFTKEAIHKTQNVGYQNEYYYLAGNVTNINNYRKYYEPLIKKDSKNFKEGMKKANEATNFKAKIEVVSTLFSTKSDFTKNNSKKDLLFLSDDLYHYKEKPENTNITLQLSEPKINSTRAFYDANNPLEYGVHKHELEHHHHHH

>  <OUTCOME MEASURE>
soluble on expression in E. coli

>  <RESULT VALUE>
not soluble

$$$$
>  <SEQ STRING>
GPGSMLRFTHRALTATPERFSVLGTTHPKPKRTGFGRNNKMRSKPSDNVAWYDKGPVEWLPRPVRLTYDHLDQLQQWMMRATLDGRTEEFNRIRDLHREWSQHPLMPVLGDVEPKFPLNLFKQNHRAKKRFLVRWHKANTPANWLWMPRGPTVVTPLHRTNPTQYPENWKQMVQRKSGTGTPS

>  <OUTCOME MEASURE>
soluble on expression in E. coli

>  <RESULT VALUE>
not soluble

$$$$
>  <SEQ STRING>
MGSDKIHHHHHHMRNEYFFRVAGLTFSVILPGGLDAETLLPSFRPFRCGECPEGERIFRLLADTRPFADDGKRAELLDESSNDMGHVCLLRIPGGYRTEISYGPMDGGAHLMTVDTAFDDATAFLRVEDPSMGEVLSSMLRILYAQAALGRDAVSVHASCVSLKGRGYLFLGKSGTGKSTHSRQWLEAFPDCRLLNDDNPVLRIEDGMVSVYGTPWSGKTPCYRNERRPVAGIVRLQQSGTNRFTPLEGPEAFAALLPSCSAIRQDIRLHDELCRILIRVTEQVPVGRLECLPDREAAWLCFESLYVRDAKAREVRDGLPENGGL

>  <OUTCOME MEASURE>
soluble on expression in E. coli

>  <RESULT VALUE>
not soluble

$$$$
